- assayed-system: TAF1-BD1 (Homo sapiens, UniProt P21675)
- experiment: TAF1-BD1 TR-FRET Binding Assay
- conditions: read-out: TAF1-BD1 HTRF IC50
readout-label: pIC50
Entry type: numeric. Quantity: pIC50, the -log10 of concentration in molar units.

# molecule, readout-label, quantitative-result
measured = [
    ("CCOC(=O)c1c(C)[nH]c2c(=O)n(C)cc(C#CC3(O)CCN(CC)CC3)c12", "pIC50", 5.11),
    ("Cc1[nH]c2c(=O)n(C)cc(C#CC(C)(C)O)c2c1-c1nnc(C(C)C)o1", "pIC50", 6.44),
    ("Cc1[nH]c2c(=O)n(C)cc(C#CC(C)(O)C3CC3)c2c1C1=NC(C(C)C)CO1 (stereo not drawn)", "pIC50", 5.95),
    ("CCOC(=O)c1c(C)[nH]c2c(=O)n(C)cc(C#CC3CCCCC3)c12", "pIC50", 5.88),
    ("CCOC(=O)c1c(C)[nH]c2c(=O)n(C)cc(C#CC3(O)CCN(C)CC3)c12", "pIC50", 4.84),
    ("C=CCCn1cc(C#CC(C)(C)CO)c2c(C(=O)OCC)c(C)[nH]c2c1=O", "pIC50", 5.31),
    ("CCOC(=O)c1c(C)[nH]c2c(=O)n(C)cc(C#CC3(O)CCCC3)c12", "pIC50", 6.55),
    ("Cc1[nH]c2c(=O)n(C)cc(C#CC(O)(c3ccccc3)C(F)(F)F)c2c1C(=O)OCC(C)C (stereo not drawn)", "pIC50", 5.81),
    ("CCNC(=O)c1c(C)[nH]c2c(=O)n(C)cc(C#CC(C)(C)O)c12", "pIC50", 5.24),
    ("Cc1[nH]c2c(=O)n(C)cc(C#CC(C)(O)C3CC3)c2c1C(=O)OCC(C)C (stereo not drawn)", "pIC50", 6.91),
]

What value of pIC50 has been recorded for this entry: CCOC(=O)c1c(C)[nH]c2c(=O)n(C)cc(C#CC(O)(C3CC3)C(F)(F)F)c12 (stereo not drawn)
6.57

Request the reported pIC50 associated with CCOC(=O)c1c(C)[nH]c2c(=O)n(C)cc(C#CC(O)(c3cccc(C#N)c3)C(F)(F)F)c12 (stereo not drawn)
6.45

Which value of pIC50 has been reported for Cc1[nH]c2c(=O)n(C)cc(C#CC(C)(O)C3CC3)c2c1-c1nnc(C(C)(C)O)o1 (stereo not drawn) in the records?
6.35

Tell me the measured pIC50 of CCOC(=O)c1c(C)[nH]c2c(=O)n(C)cc(C#CC(C)(O)C3CC3)c12 (single isomer, unassigned) [Example 92b] , please.
5.96

Would you mind telling me what pIC50 value was observed for C=CCCn1cc(C#CC(C)(O)C2CC2)c2c(C(=O)OCC)c(C)[nH]c2c1=O (stereo not drawn) ?
5.65

# pIC50 lookup, item Cc1[nH]c2c(=O)n(C)cc(C#CC(C)(C)O)c2c1C(=O)OCC(C)C
6.76

###

- assayed-system: TAF1-BD2 (Homo sapiens, UniProt P21675)
- experiment: TAF1-BD2 TR-FRET Binding Assay
- conditions: read-out: TAF1-BD2 HTRF IC50
readout-label: IC50 (nM)
Field: numeric (nM). Do not append units.

Field: example entries. Status: answers known.
# compound, IC50 / nM
records = [
    ("C=CCCn1cc(C#CC(C)(O)C2CC2)c2c(C(=O)OCC)c(C)[nH]c2c1=O (centres unmarked)", 133),
    ("Cc1cc([C@](C)(O)C#Cc2cn(C)c(=O)c3[nH]c(C)c(-c4nnc(C(C)C)o4)c23)no1", 69.1),
    ("CCOC(=O)c1c(C)[nH]c2c(=O)n(C)cc(C#Cc3cccnc3)c12", 47.7),
    ("Cc1[nH]c2c(=O)n(C)cc(C#CC(C)(C)O)c2c1C(=O)OCc1ccccc1F", 26.7),
    ("Cc1[nH]c2c(=O)n(C)cc(C#CC(C)(O)c3ccccc3)c2c1C(=O)OCC(C)C (centres unmarked)", 32.4),
]

Which IC50 is reported for this compound? CCCCC(C)(C)OC(=O)c1c(C)[nH]c2c(=O)n(C)cc(C#CC(C)(O)C3CC3)c12 (centres unmarked)
79

Please report the recorded IC50 for CCOC(=O)c1c(C)[nH]c2c(=O)n(C)cc(C#CC3(O)CCN(CC)CC3)c12 .
425

Form field: reported IC50 of Cc1[nH]c2c(=O)n(C)cc(C#CC(C)(C)O)c2c1C(=O)O
13700
